target: human 5-hydroxytryptamine2C (h5HT2C) receptor (Homo sapiens, UniProt P28335); experiment: 5HT2C receptor binding test procedure ([125I]DOI displacement, CHO cell membranes); conditions: read-out: 5HT2C Affinity DOI/Agonist binding (Ki); [125I]DOI agonist binding
VALUE KIND: Ki

Query block: Answer briefly: Ki recorded on human 5-hydroxytryptamine2C (h5HT2C) receptor (Homo sapiens, UniProt P28335) for "Cc1cc2c3c(c1)c1c(n3CCNC2)CCC1"
Result block: 985 nM

====

Target: human 5-hydroxytryptamine2C (h5HT2C) receptor (Homo sapiens)
Sequence (P28335 33-458): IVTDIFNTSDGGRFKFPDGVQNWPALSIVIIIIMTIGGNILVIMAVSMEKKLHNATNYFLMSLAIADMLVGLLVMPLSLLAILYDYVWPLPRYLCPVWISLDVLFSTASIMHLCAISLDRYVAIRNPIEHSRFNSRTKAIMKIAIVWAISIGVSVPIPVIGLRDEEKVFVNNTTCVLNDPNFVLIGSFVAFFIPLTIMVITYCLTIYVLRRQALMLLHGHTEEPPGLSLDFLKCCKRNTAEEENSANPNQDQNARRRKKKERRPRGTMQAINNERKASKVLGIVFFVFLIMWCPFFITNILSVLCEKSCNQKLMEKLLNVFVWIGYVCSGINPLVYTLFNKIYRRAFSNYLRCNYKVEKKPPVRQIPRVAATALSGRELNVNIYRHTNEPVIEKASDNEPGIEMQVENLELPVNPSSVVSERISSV
VALUE KIND: Kd (nM)
Field format: number, assumed nM, no unit text.

Query block: Identify the reported Kd for the following entry. COc1cc(CC(C)N)c(OC)cc1I (stereo not shown) [[^125I] DOI, reference compound]
Result block: 0.4
